Kindly supply the reported protein stability index values for the records listed here.
B1: ZNF8 (parent)
chain: RTHTGEKPYTCSVCGKSFSRTTCL

- Variants of: B1
- assay_method_text: protein stability index of a GFP-peptide fusion (GPS, HEK-293T) (PSI 1-6); higher = more stable;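 also: lentivirally expressed fusions sorted by FACS into six bins by GFP to DsRed ratio, PSI derived from sequencing read proportions per bin multiplied by bin number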
- run_parameters: c terminus: a fixed tail appended
# print the numeric value only

Lab note: L24V gave protein stability index of 3.06

Lab note: C14N gave protein stability index of 2.87

Lab note: S19Y gave protein stability index of 2.33

Lab note: G15D gave protein stability index of 2.36

Lab note: H3L gave protein stability index of 1.88

Lab note: C11R gave protein stability index of 2.39

Lab note: T21H gave protein stability index of 3.29

Lab note: L24R gave protein stability index of 2.73

Lab note: R20Q gave protein stability index of 2.87

Lab note: T10K gave protein stability index of 2.15

Lab note: E6Y gave protein stability index of 2.11

Lab note: P8C gave protein stability index of 2.81

Lab note: G5F gave protein stability index of 2.64

Lab note: T2F gave protein stability index of 2.69

Lab note: G15N gave protein stability index of 1.92

Lab note: Y9W gave protein stability index of 2.42

Lab note: T4V gave protein stability index of 1.93

Lab note: T22N gave protein stability index of 2.94

Lab note: T4L gave protein stability index of 2.18

Lab note: R20P gave protein stability index of 2.75

Lab note: T10G gave protein stability index of 2.21

Lab note: K7Y gave protein stability index of 2.36

The reported measurements were obtained from the supplement of paper PMC10567573.
